The measurements presented in this section are drawn from the nanobody polyreactivity screen of Harvey et al. (2022).

Assay: yeast display, Sf9 membrane polyspecificity reagent, FACS + sequencing; frameworks hold sequencing errors
measure: polyreactivity (PSR sort gate)

QVQLVESGGGLVQAGGSLRLSCAASGLTIYAYAMGWYRQAPGKERELVAIISYNGGRTYYADSVKGRFTISRDNAKNTVYLQMNSLKPEDTAVYYCAARGREVRYDYWGQGTQVTVSS ... high polyreactivity
QVQLQDSGGGLVQAGGSLRQRCAASGYISSLAAMGWYRQAPGKERDLVAGNDLGTITNYADSVKGSLTISRDNAKNTVYLQMNSLIPEDTAVYYCAPTWYYHYNDWKHWYEYGYWGQGTQVTVSS ... low polyreactivity
QVQHVESGGGLVQAGGSLRLSCAASGSIFITYAMGWYRQAPGKERELVAAIRDSGDRTYYADSVKGRFTISRDNAKNTVYLQMNSLKPEDTAVYYCNARWQEPQKYDYWGQGTQVTVSS ... low polyreactivity
QVQLVESGGGLVQAGGSLRLSCAASGFTIRRNAMGWYRQAPGKERELVAAISRSGGSTYADSVKGRFTISRDNAKNTVYLQMNSLKPEDTAVYYFASDHSDYRYTYTALIAEFYYWGQGTQVTVSS ... low polyreactivity
QVQLVESGGGLVQSGGSLRLSCAASGIIFDSYAMGWYRQAPGKERELVAAISSRGASTYYADSVKGRFTISRDNAKYTVYLQMNSLKPEDTAVYYCNAVYYAYRYGSSYDWGQGTQVTVSS ... high polyreactivity

-- ask // polyreactivity (PSR sort gate) lookup, key: QVQLVESGGGLVQAGGSLSLSCAASGSIFPGNAMGWYRQAPGKERELVAVIDFSGASTYYADSVKGRFTISRDNAKNTVYLQMNSLKPEDTADYWGQGTQVTVSS
-- reply low polyreactivity

-- ask // polyreactivity (PSR sort gate) lookup, key: QVQLVETGGGLVQAGGSLRLSCAASGSIFVYNAMGWYRQAPGKERELVAGITFIGGSTYYADSVKGRFTISRDNAKNTVFLQMNSLKPEDTAVYYCNADVAPGIFYGYDSWGQGTQVTVSS
-- reply low polyreactivity

-- ask // polyreactivity (PSR sort gate) lookup, key: QVQLVESGGGLVQAGGSLRLSCAASGSIFLYYTMGWYRQAPGKERELVAAITWGGGTTYYADSVKGRFTISRDNAKNTVYLQMNSLKPEDTAVYYCAAEGSYPRMDYWGQGTQVTVSS
-- reply low polyreactivity

-- ask // polyreactivity (PSR sort gate) lookup, key: QVQLVESGGGLDQAGGSLRLSCAASGIIFYVNDMGWYRQAPGKERELVADISGGTSTNYADSVKGRFTISRDNAKNTVYLQMNSLKPEDTAVYYCATAFIVPFPGSDYCGQGTQVTVSS
-- reply low polyreactivity

-- ask // polyreactivity (PSR sort gate) lookup, key: QVQLVESGGGLVQAGGSLRLSCAASGRIFHGYAMGWYRQAPGKERDLDAAISWRGDSTYYADSVKGRFTISRDNAKNTVYLQINSLKPEDTAVYYCAAASRSWRDDYWGQCTQVTVSS
-- reply low polyreactivity

-- ask // polyreactivity (PSR sort gate) lookup, key: QVQLVESGGGLVQAGGSLRLSCAASGRTFIYYAMGWYRQAPGKERELVAGISRNGGRTYYADSVKGRFTISRDNAKNTVYLQMNSLKPEDTAVYYCNAYPPSRHDYWGQGTQVTVSS
-- reply high polyreactivity

----------
Test: yeast display, Sf9 membrane polyspecificity reagent, FACS + sequencing; frameworks hold sequencing errors
measure: polyreactivity (PSR sort gate)

These solved cases illustrate the format of a correct answer.
QVQLVESGGGLVQAGGSLRLSCAASGRTFWYNAMGWYRQAPGKERELVAVISSGAITYYADSVKGRFTISRDNAKNTVYLQMNSLKPEDTAVYYCNAQRRGTYYWGQGTQVTVSS ... high polyreactivity
QVQLVESGGGLVKAGGSLRLSCAASGSTFAKYAMGWYRQAPGKERELDASIRLSGGSTYYADSVKGRFTISRDNAKNNVYLQMNSLKPEDTAVYYCNKQFATFYYGFDYYYWGQGTQVTVSS ... low polyreactivity
QVQLVESGGGLVLAGGSLRLSCAASGNTFRYYAMGWYRQAPGKERELVADITIGGSTYYADSVKGRFTISRDNAKNTVYLQMNSLKPEDTAVYYCATDPDWGYYDAPYGYWGQGTQVTVSS ... low polyreactivity
QVQLVESGGGLVQAGGSLRLSCAASGLTFGTNAMGWYRQAPGKERELVAAISTSSGSTYYADSVKGRFTISRDNAKNTVYLQMNSLKPEDTAVYYCAAVTVTKMSYYRYYYWGQGTQVTVSS ... low polyreactivity
QDQLVESGGGLVQAGGSLRLSCAASGSTFYWYTMGWYRQAPGKESEMVATITSVGRTNYADSVKGRFTISRDNAKNTVYLQMNSLKPEDTAVYYCAASKARWARGGSKYYYWGQGTQVTVSS ... high polyreactivity

-- ask // polyreactivity (PSR sort gate) lookup, key: QVQLVESGGGLVQAGGSLRLSCAASGITFYIYAMGWYRQAPGKERELVAAISDDGSTHYADSVKGRFTISRDNAKNTVYLHMNSLKPEDTAVYYCNADYYWFFDFFDYDYWGQGTQVTVSS
-- reply low polyreactivity

-- ask // polyreactivity (PSR sort gate) lookup, key: QVQLVESGGGLVQAGGSLRLSCAASGFIFNYYLGWYRQAPGKEREWVAAISQSGDSTYYADSVKGRFTISRDNAKNTVYLQMNSQKPEDTAVYYCAAETSPDYRGVTYYYWGQGTQVTLSS
-- reply high polyreactivity

-- ask // polyreactivity (PSR sort gate) lookup, key: QGQLVESGGGLVQAGGSLRLSCAASGSIFRSYAMGWYRQAPGKERELVASISRRGGSTYYADSVKGRFTISRDNAKNTVYLQMNSLKPEDTAVYYCAAVRYNSRVSTSPSEMYYWGQGTQVTVSS
-- reply low polyreactivity

-- ask // polyreactivity (PSR sort gate) lookup, key: QVQLVESGGGLVQAGGSLRLSCAASGSIFRLYAMGWYRQAPGKEREFVARIRWRGGSTNYADSVKGRFTISRDNAKNTVYLQMNSLKPEDTAVYYCAAKQGTVRAHTYVPWYDYWGQGTQVTVSS
-- reply high polyreactivity

-- ask // polyreactivity (PSR sort gate) lookup, key: QVQLVESGGGLVQAGGSLRLSCAASGRTFKKYAMGWYRQAPGKERELVAAIRRSGGSTYYADSVKGRFTISRDNAKNTVYLQMNSLKPEDTAVYYCAADFRVGRYDYWGQGTQVTVSS
-- reply high polyreactivity

-- ask // polyreactivity (PSR sort gate) lookup, key: QVQLVESGGGLDQAGGSLRLSCAASGRTFADYAMGWYRQAPGNERELVADISKRGGSTYFADSVKGRFTISRDNAKNTFYLQMNSLKAEDTAVYYCAAGWYYYPTFYKVKSYNYWGQGTQVTVSS
-- reply high polyreactivity

----------
Assay: yeast display, Sf9 membrane polyspecificity reagent, FACS + sequencing; frameworks hold sequencing errors
measure: polyreactivity (PSR sort gate)

These solved cases illustrate the format of a correct answer.
QVQLVESGRGLVQAGGSLRLSCAASGSTFWNNGMGWYRQAPGKERELVAAINWSGDSTYYADSVKGRFTISRDNAKNTVYLQMNSLKPEDTAVYYCAAGYYTYSRRSSFFVAYGYWGQGTQVTVSS ... low polyreactivity
QVQLVESGGGLVQAGGSLRLSCAASGFTFVRYVMGWYRQAPGKERELVAAISRSGGSTHYADSVKGRFTISRDNAKYTVYLQMNSLKPEDTAVYYCAAASPRWPGQGDYWGEGTQVTVSS ... high polyreactivity
QVQLVESGGGLVQAGGSLRLSCAASGRIFRRYAMGWYRQAPGKERELVAVISRGGSTHYADSVKGRFTISRDNAKNTVYLQMNSLKPEDTAVYYCNAVVSVYTKDLDYWGQGTQVTVSS ... high polyreactivity
QVQLVESGGGLVQAGGSLRLSCAASGRIFPSYAMGWYRQAPGKERELVAAISRSGGRTYYADSVKGRFTISRDNAKNTVYLQMNSLKPEDTAVYYCYPYYIASTFDYWGQGTQVTVSS ... high polyreactivity
QVQLVESGGGLVQAGGSLRLSCAASGSARYAMGWYRQAPGKERELVAAISRRGGSTFYADSVKGRFTISRDNAKNTVYLQMNSLKPEDTAVYYCAADGRISYDYWGQGTQVTVSS ... low polyreactivity

-- ask // polyreactivity (PSR sort gate) lookup, key: QVQLVESGGGLVQAGGSLRLSCAASGSTFQPYAMGWSRQAPGKERECVATISGSAGSTYYADSVKGRFKISRDNAKNTVYLQMNSLKPEDTAVYYCKAESPEGYRLLDYWGQGTQVTVSS
-- reply low polyreactivity

-- ask // polyreactivity (PSR sort gate) lookup, key: QVQLVESGGGLVQAGGSLRLSCAASGGTIGSNTMGWYRQAPGKERELVAAITSGVSTNYADSVKGRFTISRDNAKNTVYLQMISLKPEDNAVYYCAKVLWSEEYETIITSYGFDYWGQGTQVTVSS
-- reply low polyreactivity
